- System: 485176-168-R4-J1-PDC complex spheroid growth
- ASSAY_COMMENT: Anticancer human tumor 485176-168-R4-J1-PDC patient-derived pancreatic adenocarcinoma cell line growth inhibition [RAS]
- CONDITION_SET: second compound 0.1 µM; first compound 0.00949 µM; hits give low values
In this section, each of the compounds is paired with its reported viability, T/C.
Just the number in %, nothing appended.

# annotated cases, reported viability, T/C shown
COMPOUND	REPORTED
CCc1c2c(nc3ccc(O)cc13)-c1cc3c(c(=O)n1C2)COC(=O)[C@]3(O)CC + C#Cc1c(F)ccc2cc(O)cc(-c3ncc4c(N5CC6CCC(C5)N6)nc(OCC56CCCN5CC(F)C6)nc4c3F)c12	52.9
CCc1c2c(nc3ccc(O)cc13)-c1cc3c(c(=O)n1C2)COC(=O)[C@]3(O)CC + C=CC(=O)N1CCN(c2nc(OCC3CCCN3C)nc3c(F)c(-c4nc(N)cc(C)c4C(F)(F)F)c(Cl)cc23)C(C)C1	54.1
CC1(C)CCC(Nc2ncc(C(F)(F)F)c(-c3c[nH]c4c(P(C)(C)=O)c(C#N)ccc34)n2)CN1 (centres undefined) + C=CC(=O)N1CCN(c2nc(OCC3CCCN3C)nc3c(F)c(-c4nc(N)cc(C)c4C(F)(F)F)c(Cl)cc23)C(C)C1	80.4

In plain terms, CC1(C)CCC(Nc2ncc(C(F)(F)F)c(-c3c[nH]c4c(P(C)(C)=O)c(C#N)ccc34)n2)CN1 (centres undefined) + C#Cc1c(F)ccc2cc(O)cc(-c3ncc4c(N5CC6CCC(C5)N6)nc(OCC56CCCN5CC(F)C6)nc4c3F)c12 has a documented viability, T/C of 79.1

---

- Tested on: 485176-168-R4-J1-PDC complex spheroid growth
- ASSAY_COMMENT: Anticancer human tumor 485176-168-R4-J1-PDC cell line growth inhibition [RAS];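 further: spheroids exposed to compounds for seven days before readout; luminescence viability expressed relative to DMSO vehicle wells set as 100%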
- CONDITION_SET: second compound 0.003 µM; first compound 0.03 µM; hits give low values
In this section, each of the compounds is paired with its reported viability, T/C.
Just the number in %, nothing appended.

COMPOUND	viability, T/C (%)
CC1(C)CCC(Nc2ncc(C(F)(F)F)c(-c3c[nH]c4c(P(C)(C)=O)c(C#N)ccc34)n2)CN1 (centres undefined) + CCn1c(-c2cccnc2C(C)OC)c2c3cc(ccc31)N1CCOC(CC(NC(=O)C(C(C)C)N(C)C(=O)C3(F)CCN(C(=O)C#CC(C)(C)N(C)C)CC3)C(=O)N3CCCC(N3)C(=O)OCC(C)(C)C2)C1	58.3
CCc1c2c(nc3ccc(O)cc13)-c1cc3c(c(=O)n1C2)COC(=O)[C@]3(O)CC + CCn1c(-c2cccnc2C(C)OC)c2c3cc(ccc31)N1CCOC(CC(NC(=O)C(C(C)C)N(C)C(=O)C3(F)CCN(C(=O)C#CC(C)(C)N(C)C)CC3)C(=O)N3CCCC(N3)C(=O)OCC(C)(C)C2)C1	25.8
CCc1c2c(nc3ccc(O)cc13)-c1cc3c(c(=O)n1C2)COC(=O)[C@]3(O)CC + CCn1c(-c2cc(N3CCN(C)CC3)cnc2C(C)OC)c2c3cc(ccc31)-c1csc(n1)CC(NC(=O)C1CC1C)C(=O)N1CCCC(N1)C(=O)OCC(C)(C)C2	27.8

In plain terms, CC1(C)CCC(Nc2ncc(C(F)(F)F)c(-c3c[nH]c4c(P(C)(C)=O)c(C#N)ccc34)n2)CN1 (centres undefined) + CCn1c(-c2cc(N3CCN(C)CC3)cnc2C(C)OC)c2c3cc(ccc31)-c1csc(n1)CC(NC(=O)C1CC1C)C(=O)N1CCCC(N1)C(=O)OCC(C)(C)C2 has a documented viability, T/C of 54.5

Source listed as PubChem BioAssay AID2060906.
